# assayedTarget: UniProtKB Q5XXA6
# Sequence (Q5XXA6 whole entry, species assumed): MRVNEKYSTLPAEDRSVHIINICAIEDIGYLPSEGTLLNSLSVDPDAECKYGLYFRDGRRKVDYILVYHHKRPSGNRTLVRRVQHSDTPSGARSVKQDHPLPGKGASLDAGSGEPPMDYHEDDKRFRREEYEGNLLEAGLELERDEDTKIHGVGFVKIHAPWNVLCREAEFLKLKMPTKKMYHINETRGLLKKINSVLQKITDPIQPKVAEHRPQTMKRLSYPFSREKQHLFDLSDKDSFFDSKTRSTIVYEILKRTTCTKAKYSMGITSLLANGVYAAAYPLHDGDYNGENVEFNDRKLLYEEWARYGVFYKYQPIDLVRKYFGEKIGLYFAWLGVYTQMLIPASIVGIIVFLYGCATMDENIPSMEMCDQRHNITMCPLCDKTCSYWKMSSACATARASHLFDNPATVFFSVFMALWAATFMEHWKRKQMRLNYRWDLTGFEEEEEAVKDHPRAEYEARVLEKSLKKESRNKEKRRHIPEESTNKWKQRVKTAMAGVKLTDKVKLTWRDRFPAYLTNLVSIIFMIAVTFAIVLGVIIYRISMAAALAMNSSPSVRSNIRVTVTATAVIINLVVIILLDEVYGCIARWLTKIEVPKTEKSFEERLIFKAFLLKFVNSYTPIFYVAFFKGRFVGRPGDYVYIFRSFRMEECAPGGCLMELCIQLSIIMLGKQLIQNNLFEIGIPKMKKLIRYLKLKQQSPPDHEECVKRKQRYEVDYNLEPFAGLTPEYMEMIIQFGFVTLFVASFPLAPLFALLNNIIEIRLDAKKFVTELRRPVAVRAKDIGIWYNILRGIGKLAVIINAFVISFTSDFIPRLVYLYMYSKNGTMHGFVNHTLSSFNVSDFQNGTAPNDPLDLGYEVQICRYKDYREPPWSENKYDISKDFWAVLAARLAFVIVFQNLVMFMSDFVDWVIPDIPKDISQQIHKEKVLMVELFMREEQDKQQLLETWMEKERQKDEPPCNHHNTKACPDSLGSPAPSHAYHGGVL
# assayDetails: Selective inhibition of ANO1 over ANO2 (Table 1), ANO1 IC50
# Assay type: cell-based
metricName: IC50

[
  {
    "compound": "Cc1cc(Cl)ccc1OCC(=O)N/N=C1\\CCOc2ccccc21 [Comparative Example 14]",
    "IC50": "> 100 µM"
  },
  {
    "compound": "COc1ccccc1/C=N/NC(=O)c1cc2cc(Cl)ccc2o1 [Comparative Example 1]",
    "IC50": "> 100 µM"
  }
]

Exam item: Can you look up the measured IC50 of CCOC(=O)c1csc(NC(=O)COc2ccc(Cl)cc2C)n1 [Example 14] for me?
Marked response: 14.8 µM

Exam item: Quick one: IC50 of Cc1cc(Cl)ccc1OC(C)C(=O)N/N=C/c1ccccc1OC(F)(F)F (stereo not drawn) [Comparative Example 17] ?
Marked response: > 100 µM

Exam item: Name the reported IC50 value associated with the compound Cc1cc(Cl)ccc1OCc1nnc(-c2cccc(OC(F)(F)F)c2)o1 [Comparative Example 10]
Marked response: > 100 µM

Exam item: # lookup: IC50 of COc1ccccc1CNC(=O)COc1ccc(Cl)cc1C [Example 11]
Marked response: 20.6 µM

Exam item: Consider the compound shown here: Cc1cc(Cl)ccc1OC(F)(F)C(=O)N/N=C/c1ccccc1OC(F)(F)F [Comparative Example 19] What is its recorded IC50?
Marked response: > 100 µM

Exam item: Look up IC50: COC(=O)c1sc(NC(=O)COc2ccc(Cl)cc2C)nc1C [Comparative Example 16]
Marked response: > 100 µM

Exam item: Which measured IC50 value corresponds to Cc1cc(Cl)ccc1OCC(=O)Nc1nc2cc(Cl)ccc2o1 [Example 13] ?
Marked response: 14.2 µM
